# Test system: barnyardgrass
# ASSAY_COMMENT: Test B flooded paddy test
# Assay type: in vivo, Echinochloa crus-galli
# CONDITIONS: 500 g ai/ha, Flood; scale of 0 to 100 where 0 is no effect and 100 is complete control
# Protocol: Plant species in the flooded paddy test selected from rice (Oryza sativa), sedge, umbrella (small-flower umbrella sedge, Cyperus difformis), ducksalad (Heteranthera limosa), and barnyardgrass (Echinochloa crus-galli) were grown to the 2-leaf stage for testing. […] Treated plants and controls were maintained in a greenhouse for 13 to 15 days, after which time all species were compared to controls and visually evaluated. […]
// label = y if Plant response rating, Barnyardgrass is not less than 60, otherwise n

MOLECULE	GROUP
O=C1NCC(c2cccc(-n3ccc(C(F)(F)F)n3)c2)C1C(=O)Nc1cccc(F)c1F (stereo not shown)	n

Does O=C1NCC(c2cnn(CC(F)(F)F)c2)C1C(=O)Nc1ccccc1C(F)(F)F (stereo not shown) have a reported Plant response rating, Barnyardgrass of at least 60? n

Does COc1cc(C2CNC(=O)C2C(=O)Nc2ccc(F)cc2F)ccc1F (racemic) have a reported Plant response rating, Barnyardgrass of at least 60? n

Does O=C1NCC(c2cccc(C(F)F)c2)C1C(=O)Nc1cccc(F)c1F (racemic) have a reported Plant response rating, Barnyardgrass of at least 60? y

Does O=C1NCC(c2cccc(Br)c2)C1C(=O)Nc1ccccc1Cl (stereo not shown) have a reported Plant response rating, Barnyardgrass of at least 60? n

Does O=C1NCC(c2cccc(OC(F)(F)C(F)F)c2)C1C(=O)Nc1ccccc1Cl (racemic) have a reported Plant response rating, Barnyardgrass of at least 60? n

Does O=C1NCC(c2ccc(F)cc2)C1C(=O)Nc1ccc(F)c(F)c1F (racemic) have a reported Plant response rating, Barnyardgrass of at least 60? y

Does O=C1NCC(c2cccc(I)c2)C1C(=O)Nc1cccc(F)c1F (stereo not shown) have a reported Plant response rating, Barnyardgrass of at least 60? n

###

# System: blackgrass
# ASSAY_COMMENT: Test A postemergence herbicide test
# Type: in vivo, Alopecurus myosuroides
# CONDITIONS: 500 g ai/ha
VALUE_TYPE: Blackgrass plant response rating (0 to 100 scale, 0 is no effect, 100 is complete control)

MOLECULE	RESULT
Cc1cc(C2CNC(=O)C2C(=O)Nc2ccc(F)c(F)c2F)ccc1F (racemic)	30
Cc1cc(C2CNC(=O)C2C(=O)Nc2cccc(F)c2F)ccc1F (racemic)	50
O=C1NCC(c2cccc3ccccc23)C1C(=O)Nc1ccccc1F (centres unmarked)	0

Please supply Blackgrass plant response rating (0 to 100 scale, 0 is no effect, 100 is complete control) for each of the following items, keeping them in order.
1. COc1ccc(C2CNC(=O)C2C(=O)Nc2ccccc2F)cc1C(F)(F)F (racemic)
2. Cc1ccccc1NC(=O)C1C(=O)NCC1c1ccc(OC(F)F)cc1 (centres unmarked)

[20, 40]

Please supply Blackgrass plant response rating (0 to 100 scale, 0 is no effect, 100 is complete control) for each of the following items, keeping them in order.
1. O=C1NCC(c2cccc(C(F)F)c2)C1C(=O)Nc1ccccc1C(F)(F)F (racemic)
2. Cc1ccc(C2CNC(=O)C2C(=O)Nc2ccc(F)cc2F)cc1F (racemic)
3. O=C1NCC(c2cccc(OC(F)F)c2)C1C(=O)Nc1ccccc1Br (centres unmarked)

1. 60
2. 30
3. 40

###

So I've got a bunch of compounds here, and I need their Plant response rating, Foxtail, Giant values.
# Test system: giant foxtail
# ASSAY_COMMENT: Test A pre-/postemergence herbicide test
# Format: in vivo, Setaria faberii
# CONDITIONS: preemergence; 500 g ai/ha; 0 to 100 scale, 0 is no effect and 100 is complete control
Give bare numbers.

Recorded results for 2 compounds are shown here.
COMPOUND	NUMERIC_VALUE
O=C1NCC(c2ccc(F)c(F)c2)C1C(=O)Nc1cccc(C(F)(F)F)n1 (racemic)	70
O=C1NCC(c2cccc(C(F)(F)F)c2)C1C(=O)Nc1ccccc1Br (racemic)	90

Please supply Plant response rating, Foxtail, Giant for each of the following items, keeping them in order.
1. O=C1NCC(c2ccc(C(F)(F)F)cc2)C1C(=O)Nc1ccccc1F (stereo not shown)
2. O=C1NCC(c2cccc(C(F)F)c2)C1C(=O)Nc1ccccc1C(F)(F)F (racemic)

1: 90; 2: 90

###

# Test system: barnyardgrass
# ASSAY_COMMENT: Test A pre-/postemergence herbicide test
# Type: in vivo, Echinochloa crus-galli
# CONDITIONS: Postemergence, 500 g ai/ha; 0 to 100 scale (0 no effect, 100 complete control)
# From the text: […]
VALUE_TYPE: Plant response rating, Barnyardgrass

Recorded results for 5 molecules are shown here.
MOLECULE	STUDY_SYSTEM	Plant response rating, Barnyardgrass
O=C1NCC(c2ccc(Cl)o2)C1C(=O)Nc1cccc(F)c1F (stereo not shown) [Compound 285]	barnyardgrass	70
O=C1NCC(c2ccc(F)c(Cl)c2)C1C(=O)Nc1ccccc1F (stereo not shown) [Compound 60]	barnyardgrass	90
O=C1NCC(c2ccc(Cl)o2)C1C(=O)Nc1ccccc1F (stereo not shown) [Compound 284]	barnyardgrass	50
O=C1NCC(c2cccc(C(F)(F)F)c2)C1C(=O)Nc1ccccn1 (racemic) [Compound 110]	barnyardgrass	90
O=C1NCC(c2cnn(CC(F)(F)F)c2)C1C(=O)Nc1ccccc1C(F)(F)F (stereo not shown) [Compound 300]	barnyardgrass	0

Please supply Plant response rating, Barnyardgrass for each of the following items, keeping them in order.
1. O=C1NCC(c2ccc(OC(F)(F)F)cc2)C1C(=O)Nc1ccccc1C(F)(F)F (racemic) [Compound 258]
2. O=C1NCC(c2ccc(Cl)c(Cl)c2)C1C(=O)Nc1ccccc1F (racemic) [Compound 14]
3. O=C1NCC(c2ccccc2)C1C(=O)Nc1ccccc1Cl (racemic) [Compound 83]
4. O=C1NCC(c2cc(F)c(F)cc2F)C1C(=O)Nc1cccc(F)c1F (stereo not shown) [Compound 50]
5. O=C1NCC(c2cccc(OC(F)(F)C(F)F)c2)C1C(=O)Nc1cccc(F)c1F (racemic) [Compound 123]

80
80
60
80
80

###

So I've got a bunch of molecules here, and I need their Plant response rating, Ryegrass, Italian values.
# Tested on: ryegrass, Italian
# ASSAY_COMMENT: Test A pre-/postemergence herbicide test
# Type: in vivo, Lolium multiflorum
# CONDITIONS: Preemergence, 125 g ai/ha; 0 to 100 scale where 0 is no effect and 100 is complete control
Numbers only.

MOLECULE	Plant response rating, Ryegrass, Italian
O=C1NCC(c2ccc(Cl)c(Cl)c2)C1C(=O)Nc1ccc(F)c(F)c1F (stereo not shown)	0
O=C1NCC(c2ccc(Cl)o2)C1C(=O)Nc1ccccc1F (stereo not shown)	0
O=C1NCC(c2cc(F)cc(F)c2)C1C(=O)Nc1ccccc1Cl (racemic)	0

The record that follows has no Plant response rating, Ryegrass, Italian shown yet.
Give a short answer stating reported Plant response rating, Ryegrass, Italian for CN1CC(c2ccc(C(F)(F)F)cc2)C(C(=O)Nc2cccc(F)c2F)C1=O (stereo not shown) . 40

###

# System: barnyardgrass
# ASSAY_COMMENT: Test A pre-/postemergence herbicide test
# Format: in vivo, Echinochloa crus-galli
# CONDITIONS: Postemergence, 125 g ai/ha; 0 to 100 scale, 0 no effect, 100 complete control
# Text: […]
So I've got a bunch of compounds here, and I need their Plant response rating, Barnyardgrass values.
Numbers only.

Recorded results for 2 compounds are shown here.
COMPOUND	STUDY_SYSTEM	VALUE_TYPE	NUMERIC_VALUE
Cc1cc(C2CNC(=O)C2C(=O)Nc2ccc(F)cc2F)ccc1F (racemic) [Compound 140]	barnyardgrass	Plant response rating, Barnyardgrass	70
O=C1NCC(c2cccc(OC(F)(F)C(F)F)c2)C1C(=O)Nc1cccc(F)c1F (racemic) [Compound 123]	barnyardgrass	Plant response rating, Barnyardgrass	70

The record that follows has no Plant response rating, Barnyardgrass shown yet.
State, for barnyardgrass, measured Plant response rating, Barnyardgrass of the compound listed here: O=C1NCC(c2cccc(OC(F)(F)F)c2)C1C(=O)Nc1ccccc1F (stereo not drawn) [Compound 69] 70

###

So I've got a bunch of compounds here, and I need their Wheat plant response rating (0 to 100 scale, 0 is no effect, 100 is complete control) values.
# Tested on: wheat
# ASSAY_COMMENT: Test A pre-/postemergence herbicide test
# Format: in vivo, Triticum aestivum
# CONDITIONS: Postemergence, 500 g ai/ha
Answers are plain numbers.

Recorded results for 3 compounds are shown here.
COMPOUND	NUMERIC_VALUE
Cc1ccc(C2CNC(=O)C2C(=O)Nc2ccc(F)cc2F)cc1 (racemic)	0
O=C1NCC(c2cccc(C(F)(F)F)c2)C1C(=O)Nc1nnc(C(F)(F)F)s1 (racemic)	0
Cc1ccc(NC(=O)C2C(=O)NCC2c2cccc(C(F)(F)F)c2)cc1C(F)(F)F (racemic)	0

Please supply Wheat plant response rating (0 to 100 scale, 0 is no effect, 100 is complete control) for each of the following items, keeping them in order.
1. O=C1NCC(c2cccc(S(F)(F)(F)(F)F)c2)C1C(=O)Nc1cccc(F)c1F (stereo not shown)
2. O=C1NCC(c2ccc3ccccc3c2)C1C(=O)Nc1ccccc1C(F)(F)F (racemic)
3. Cc1cccc(NC(=O)C2C(=O)NCC2c2cccc(C(F)(F)F)c2)c1F (racemic)
4. COc1cc(C2CNC(=O)C2C(=O)Nc2ccccc2C(F)(F)F)ccc1F (racemic)

1: 50; 2: 0; 3: 40; 4: 0
